# System: Escherichia coli TOP10;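 further: peptides expressed intracellularly from a pBAD plasmid library in pooled LB shake-flask culture, induced with 0.3% L-arabinose, DNA abundance read by NGS, three biological replicates, DESeq2 with apeglm shrinkage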
# measurementNotes: shrunken log2 fold change of peptide-encoding DNA abundance (4.5 h post-induction vs induction); higher = less antimicrobial activity (less host growth inhibition)
# measurementSetup: time post-induction: 4.5 h; library: site-saturation at positions 5, 18, 19, 20
Category key, based on recorded shrunken log2 fold change: Low = under -0.009, Mid = from -0.009 up to 0.3, High = 0.3 and over

Use these answered entries as a reference point.
# recordSequence, group
measured = [
    ("RRIRMRPPRLPRPRPRPELRPRP", "High"),
    ("RRIRHRPPRLPRPRPRPGKKPRP", "Low"),
    ("RRIRIRPPRLPRPRPRPHKRPRP", "Low"),
    ("RRIRPRPPRLPRPRPRPLRWPRP", "High"),
]

Task: Hello team, could you let me know which band the following sequence falls into: RRIRGRPPRLPRPRPRPDKYPRP
Output: Low

Task: Hello team, could you let me know which band the following sequence falls into: RRIRRRPPRLPRPRPRPYFSPRP
Output: Low

Task: Hello team, could you let me know which band the following sequence falls into: RRIRRRPPRLPRPRPRPRESPRP
Output: High

Task: Hello team, could you let me know which band the following sequence falls into: RRIRPRPPRLPRPRPRPHSWPRP
Output: Mid

Task: Hello team, could you let me know which band the following sequence falls into: RRIRKRPPRLPRPRPRPKAHPRP
Output: Mid
